systemTested: cloned human 5-HT6 receptor (Homo sapiens, UniProt P50406)
Construct: host or cells: HeLa cells, G-418 selection, membrane preparation
Sequence (P50406 whole entry): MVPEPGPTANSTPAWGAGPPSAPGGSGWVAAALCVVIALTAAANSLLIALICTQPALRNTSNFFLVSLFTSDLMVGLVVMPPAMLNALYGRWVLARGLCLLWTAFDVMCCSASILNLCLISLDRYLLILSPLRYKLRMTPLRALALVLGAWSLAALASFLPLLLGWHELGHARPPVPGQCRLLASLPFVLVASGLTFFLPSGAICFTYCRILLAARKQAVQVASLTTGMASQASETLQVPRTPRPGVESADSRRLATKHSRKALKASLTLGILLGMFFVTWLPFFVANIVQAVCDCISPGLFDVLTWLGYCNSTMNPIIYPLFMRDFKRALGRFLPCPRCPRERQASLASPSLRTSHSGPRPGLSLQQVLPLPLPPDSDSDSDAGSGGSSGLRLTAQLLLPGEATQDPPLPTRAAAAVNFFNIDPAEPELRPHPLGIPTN
testProtocol: 5-HT6 Receptor Binding Assay ([3H]-LSD radioligand, SPA)
particulars: read-out: 5HT6 % inh @ 1 uM
reportedProperty: inhibition at 1 µM (%)

Sure, the documented inhibition at 1 µM for "Cc1ccccc1O[C@H]1CCCN(C(=O)c2cccc(N3CCCNCC3)n2)C1" is 95.4

compound O=C(c1cccc(N2CCNCC2)n1)N1CCCCC1c1ccc(F)cc1 (centres unmarked) , inhibition at 1 µM observed: 75.1

So, Cc1cc(F)ccc1C1CCN(C(=O)c2cccc(C3CCN(C)C3)n2)CC1 (centres unmarked) ? Its inhibition at 1 µM was 93.6

What the record says about "O=C(c1cccc(N2CCCNCC2)n1)N1CCC[C@H](Oc2ccc(F)cc2)C1" : inhibition at 1 µM is 82

Value of measured inhibition at 1 µM for the entry "CN1CCN(c2cccc(C(=O)N3CC=C(c4ccccc4F)CC3)n2)CC1" : 97.8

Query "CN1CCC(c2cccc(C(=O)N3CCC(Oc4ccccc4F)CC3)n2)CC1" yields inhibition at 1 µM of 78.4

The reported inhibition at 1 µM of the compound "CN1CCC(c2cccc(C(=O)N3CCC(Oc4ccccc4Cl)CC3)n2)CC1" was 85.8

// inhibition at 1 µM lookup, compound = "CN1CCN(c2cccc(C(=O)N3CC(c4ccccc4F)C3)n2)CC1" , result: 84.4

Lab note: O=C(c1cccc(N2CCCNCC2)n1)N1CCCCC1c1ccccc1F (centres unmarked) gave inhibition at 1 µM of 94.5

For O=C(c1cccc(N2CCNCC2)n1)N1CCCCC1c1cccc(F)c1 (centres unmarked) the compound record lists inhibition at 1 µM as 94.5

inhibition at 1 µM in this record for "CN1CCN(c2cccc(C(=O)N3CCC(c4ccc(F)cc4F)CC3)n2)CC1" : 98.7

Record "CN1CCN(c2cccc(C(=O)N3CCC(c4ccccc4F)CC3)n2)CC1" , field inhibition at 1 µM: 101

So, "CN1CCN(c2cccc(C(=O)N3CCC(Oc4ccc(F)cc4F)CC3)n2)CC1" ? Its inhibition at 1 µM was 97.8

Looking up "Cc1ccccc1OC1CCN(C(=O)c2cccc(C3CCN(C)CC3)n2)CC1" , I found its inhibition at 1 µM recorded as 84

Looking up "Cc1cc(F)ccc1C1CCN(C(=O)c2cccc(N3CCN(C)CC3)n2)CC1" , I see its inhibition at 1 µM listed as 97.6

So for "CN1CCN(c2cccc(C(=O)N(C)Cc3cccc(Cl)c3)n2)CC1" , the logged inhibition at 1 µM turned out to be 87.1

Noted for "Cc1ccccc1O[C@@H]1CCN(C(=O)c2cccc(N3CCCNCC3)n2)C1" : its inhibition at 1 µM reads 89.9

Short answer for "CN1CCN(c2cccc(C(=O)N(C)Cc3ccccc3F)n2)CC1" : inhibition at 1 µM was 87.6

Documented inhibition at 1 µM of CN1CCN(c2cccc(S(=O)(=O)N3CCCCC3c3ccccc3F)n2)CC1 (centres unmarked) : 90.2

Measured inhibition at 1 µM, "Cc1cccc(O[C@@H]2CCCN(C(=O)c3cccc(N4CCCNCC4)n3)C2)c1" : 86.1
